Tested on: BT474
procedureText: Breast cancer cell viability, 48 hours, MTA assay
Type: cell-based
testContext: Homo sapiens, BT-474, 48 h
measurementName: IC50 (nM)
Give the number; nM is assumed, so skip it.

Return value of IC50 for input O=C(CCCCCCNC(=O)c1cnc(N(c2ccccc2)c2ccccc2)nc1)NO , no commentary.
2320

----------
System: T-47D*
procedureText: Breast cancer cell viability, 48 hours, MTA assay
Format: cell-based
testContext: Homo sapiens, T47D, 48 h
measurementName: IC50
Please state the value followed by its unit.

Return value of IC50 for input O=C(CCCCCCNC(=O)c1cnc(N(c2ccccc2)c2ccccc2)nc1)NO [Compound A] , no commentary.
5 µM

The reported numbers originate from patent US10722512B2.
